System: Plasmodium falciparum
Run Description: Primary screen in NF54 nanoGlo assay, in single point, at 2uM, 72h
Assay type: functional, Erythrocyte
Measurement Conditions: timepoint 72 hour
Among all 150,000 compounds or so, about 540 (0.36%) showed an effect of 50% or more. For the sample, strong results were picked, then their nearest neighbours and some compounds at random.
Value Type: Z score

Example entries and their recorded answers appear below.
{"Compound": "COc1ccc(C(CO)CNC2[C@@H]3CCC[C@@H]3C2(C)C)cc1 (some centres not stated)", "Z score": -0.02}
{"Compound": "O=C(NCc1ccc(F)cc1)C1[C@@H]2C=C[C@@]3(CN(Cc4ccccc4Cl)C(=O)[C@H]13)O2 (some centres not stated)", "Z score": 1.29}
{"Compound": "NC(=O)C1CCN(CCC(=O)N2CCc3cc4ccc3[C@@H]2c2cccc(c2)OCCCNC(=O)c2cc(ccc2O)O4)CC1", "Z score": -17.59}

Kindly consider the entry below.
IN: What value of measured Z score is listed for "CCn1ccc(C(=O)N2CCc3cc4ccc3[C@@H]2c2cccc(c2)OCCCNC(=O)c2cc(ccc2O)O4)cc1=O" ?
OUT: -1.26

====

Tested on: Plasmodium falciparum
Run Description: Primary screen in NF54 nanoGlo assay, in single point, at 2uM, 72h
Type: functional, Erythrocyte
Measurement Conditions: timepoint 72 hour
The campaign covered roughly 150,000 compounds. About 540 (0.36%) showed an effect of 50% or more. For the sample, strong results were picked, then their nearest neighbours and some compounds at random.
Each item that follows carries a reported Z score.
Please respond with just the number, no unit label.

IN: What value of measured Z score is listed for "COc1cccc(S(=O)(=O)N2CCCN(Cc3ccncc3)[C@H](c3ccccc3)CC(=O)NCC2)c1" ?
OUT: -7.9

IN: What value of measured Z score is listed for "O=C(COc1ccc(Br)cc1F)N[C@@H](C(=O)O)c1ccc(F)c(F)c1" ?
OUT: 2.1

IN: What value of measured Z score is listed for "CN(C[C@H](O)C(F)(F)F)C(=O)c1ccc(C#N)cn1" ?
OUT: 1.32

IN: What value of measured Z score is listed for "COc1cccc(C(=O)N2C[C@@H]3CC[C@H]2CN(Cc2c(C)noc2C)C3)c1" ?
OUT: -0.53

IN: What value of measured Z score is listed for "N#Cc1ncn(C[C@H]2CCC3(CCCCC3)O2)c1C#N" ?
OUT: 1.82

====

System: Plasmodium falciparum
Run Description: Primary screen in NF54 nanoGlo assay, in single point, at 2uM, 72h
Format: functional, Erythrocyte
Measurement Conditions: timepoint 72 hour
In all, about 150,000 compounds went through this assay and about 540 (0.36%) showed an effect of 50% or more. The sample holds strong results, similar compounds and a random draw of the others, so the mix is not that of the screen.
Value Type: % Inhibition (%)
Could you give me the number in %? Just the number is fine.

Example entries and their recorded answers appear below.
{"Line Notation": "CC(C)C(=O)N(Cc1ccc(-c2ccc(Cl)cc2)o1)[C@H]1CCS(=O)(=O)C1", "Result Units": "%", "% Inhibition": 1}
{"Line Notation": "O=C(C[n+]1ccccc1-c1nc(-c2ccc(Cl)cc2)cs1)c1ccccc1", "Result Units": "%", "% Inhibition": -7}

IN: What value of measured % Inhibition is listed for "O=C(CN1C=CCC=C1c1nc(-c2ccc(Br)cc2)cs1)c1ccccc1" ?
OUT: 65

IN: What value of measured % Inhibition is listed for "Cc1ccc(N2S(=O)(=O)c3ccccc3S2(=O)=O)cc1" ?
OUT: 4

IN: What value of measured % Inhibition is listed for "Cn1cccc1CCC(=O)NCCc1noc(C2CC2)n1" ?
OUT: -5

IN: What value of measured % Inhibition is listed for "CCC(CC)C(=O)N(Cc1ccc(-c2ccc(Cl)cc2)o1)[C@H]1CCS(=O)(=O)C1" ?
OUT: -7

IN: What value of measured % Inhibition is listed for "CCOCCCNCc1ccc(F)cc1" ?
OUT: -10

IN: What value of measured % Inhibition is listed for "Cc1noc(C)c1CC(=O)N1CCCCCC1" ?
OUT: -23

IN: What value of measured % Inhibition is listed for "Cc1oc(-c2ccc(C(=O)NCCN(C)C)cc2)nc1CN1CCc2ccccc21" ?
OUT: -14

IN: What value of measured % Inhibition is listed for "COc1ccc(-c2csc(-c3nc(-c4cccc(Cl)c4)cs3)n2)cc1" ?
OUT: -13

IN: What value of measured % Inhibition is listed for "Cc1ccc2c(c1)CCCN2C(=O)c1ccoc1" ?
OUT: 4

IN: What value of measured % Inhibition is listed for "CCc1c(C(=O)N2CCC(c3ccnn3CCO)CC2)cnn1-c1cccc(Cl)c1" ?
OUT: -3

IN: What value of measured % Inhibition is listed for "C[C@@H](CNc1nc(-c2ccccc2)nc2nc(-c3ccc(Cl)cc3)oc12)N1CCCCC1" ?
OUT: 79

IN: What value of measured % Inhibition is listed for "Cn1c(C(=O)N2CC[C@H](N)C2)ccc1-c1ccccc1Br" ?
OUT: 0

IN: What value of measured % Inhibition is listed for "CCc1ccc(-c2cc(C(=O)Nc3ccc4nc(NS(C)(=O)=O)sc4c3)[nH]n2)cc1" ?
OUT: -13

IN: What value of measured % Inhibition is listed for "Cn1c(C(=O)N2CC[C@H](N)C2)ccc1-c1cccc(Br)c1" ?
OUT: 50

IN: What value of measured % Inhibition is listed for "N[C@@H]1CCN(C(=O)c2cccnc2Oc2cccc(Br)c2)C1" ?
OUT: -12

IN: What value of measured % Inhibition is listed for "c1cnc(NCc2cnc(N3CCCC3)s2)cn1" ?
OUT: -3

IN: What value of measured % Inhibition is listed for "CCC(=O)N(Cc1ccc(-c2ccc(Cl)cc2)o1)[C@H]1CCS(=O)(=O)C1" ?
OUT: 63

IN: What value of measured % Inhibition is listed for "Cc1c(-c2cnn(C)c2)cc(C#N)n1C(F)F" ?
OUT: -7

IN: What value of measured % Inhibition is listed for "Brc1ccc(-c2csc(Cc3nc(-c4ccc(Br)cc4)cs3)n2)cc1" ?
OUT: -3

IN: What value of measured % Inhibition is listed for "CCOc1ccc(S(=O)(=O)N[C@H]2CC[C@@H](CC(=O)O)C2)c(C)c1" ?
OUT: -1

IN: What value of measured % Inhibition is listed for "c1ccc(-c2nc(NC3CCCC3)c3oc(-c4ccccc4)nc3n2)cc1" ?
OUT: -7

====

Test system: Plasmodium falciparum
Run Description: Primary screen in NF54 nanoGlo assay, in single point, at 2uM, 72h
Format: functional, Erythrocyte
Measurement Conditions: timepoint 72 hour
In all, about 150,000 compounds went through this assay and about 540 (0.36%) showed an effect of 50% or more. For the sample, strong results were picked, then their nearest neighbours and some compounds at random.
Value Type: % Inhibition

Example entries and their recorded answers appear below.
{"Line Notation": "CCn1cc(-c2cc(O)cc(CC[C@H]3CCCCN3)c2)c(C)n1", "% Inhibition": "3%"}
{"Line Notation": "COc1ccc(C2=C[C@@H](c3cccc(OC)c3)n3ncc(C(=O)Nc4ccccc4)c3N2)cc1", "% Inhibition": "6%"}
{"Line Notation": "Cc1cnccc1NCCNCc1nc(C(C)C)cs1", "% Inhibition": "6%"}
{"Line Notation": "CCn1ccc(CNCCNc2ccncc2C)n1", "% Inhibition": "-3%"}
{"Line Notation": "Cc1noc2ncnc(N3CCC4(CC3)CC(=O)N(Cc3ccccc3)C4)c12", "% Inhibition": "-6%"}

IN: What value of measured % Inhibition is listed for "COc1ccc(C(=O)CN2C=CCC=C2c2nc(-c3ccc(Cl)cc3)cs2)cc1" ?
OUT: 75%

IN: What value of measured % Inhibition is listed for "CC(=O)c1cc(-c2cc(O)cc(CC[C@H]3CCCCN3)c2)ccc1O" ?
OUT: 78%

IN: What value of measured % Inhibition is listed for "CN(CC(F)(F)F)C(=O)CNc1ncccn1" ?
OUT: 3%

IN: What value of measured % Inhibition is listed for "COc1ccc(C2=CN(CC(=O)c3ccc(Cl)cc3)C3=CCCCCN23)cc1" ?
OUT: 37%

IN: What value of measured % Inhibition is listed for "CCc1ccc(C2=C[C@@H](c3cccc(OC)c3)n3ncc(C(=O)Nc4ccc(C)cc4)c3N2)cc1" ?
OUT: 60%

IN: What value of measured % Inhibition is listed for "COC(=O)[C@@H]1C[C@@H](O)CN1Cc1ccncc1Cl" ?
OUT: -4%

====

Test system: Plasmodium falciparum
Run Description: Primary screen in NF54 nanoGlo assay, in single point, at 2uM, 72h; a lower Z score goes with more inhibition
Type: functional, Erythrocyte
Measurement Conditions: timepoint 72 hour
Hit rate of the full screen: of about 150,000 compounds, about 540 (0.36%) showed an effect of 50% or more. This excerpt belongs to a sample that is enriched for strong results.
Z score strictly under -0.8 means 1 (yes); at -0.8 or over means 0 (no).

{"Molecule": "CCNc1nc(C)cc(NCCNC(=O)c2cccc(Cl)c2)n1", "Label Class": "1 (yes)"}
{"Molecule": "CN(Cc1cccc(N(C)C)c1)Cc1csc(-c2ccoc2)n1", "Label Class": "0 (no)"}
{"Molecule": "C[C@H]1[C@@H]2[C@@H](O)C([C@H](C)C(=O)NC3CCCC3)CC[C@@]2(C)CC[C@@H]1NC(=O)c1ccc(C#N)cc1 (stereo partly specified)", "Label Class": "0 (no)"}
{"Molecule": "CCNc1nc(C)cc(Nc2ccc(NC(=O)c3cc(C)ccc3C)cc2)n1", "Label Class": "1 (yes)"}
{"Molecule": "CCN(Cc1nc(C(N)=O)no1)Cc1c(F)cccc1Cl", "Label Class": "0 (no)"}

IN: Regarding "CN(CC(=O)Nc1cccc(F)c1)C(=O)C[C@@H]1C=CCC1" , kindly confirm whether its Z score is beneath -0.8.
OUT: 1 (yes)

IN: Regarding "COCCNc1c(-c2ccccc2)nc2sc(C(=O)NCc3cccnc3)c(C)n12" , kindly confirm whether its Z score is beneath -0.8.
OUT: 0 (no)

IN: Regarding "CCS(=O)(=O)Nc1ccnn1[C@@H](C)C1CC1" , kindly confirm whether its Z score is beneath -0.8.
OUT: 0 (no)

IN: Regarding "Cc1ccc(C)c(C(=O)Nc2cnc(-n3nc(C)cc3C)nc2)c1" , kindly confirm whether its Z score is beneath -0.8.
OUT: 0 (no)

IN: Regarding "Cc1cc(N(C)C)nc(NCCNC(=O)Nc2cccc(F)c2C)n1" , kindly confirm whether its Z score is beneath -0.8.
OUT: 1 (yes)
